- Experimental protocol: Cytotoxicity against Homo sapiens (human) HEL cells assessed as alteration in cell morphology by microscopy
- Assay type: cell-based
- Measurement parameters: read-out: MTC
Property: MCC (µg/mL)
Kindly answer with a numeric value in µg/mL, unit omitted.

                      compound_smiles  value_unit  test_value
0  C/C(=N\NC(=O)c1ccncc1)c1ccc(Cl)cc1       µg/mL         100

From here, focus on the item given below.
Q: Output MCC of `C/C(=N\NC(=O)c1ccncc1)c1cccc([N+](=O)[O-])c1`
Ans: 100

====

- Test system: Candida albicans
- Experimental protocol: Antimicrobial activity against Candida albicans after 48 hr by tube dilution method
- Type: functional
Property: -logMIC
# respond with the number and nothing more

Take a look at these entries with their results.
>>> df
                            compound  target_or_test_system  test_value
0    C/C(=N\NC(=O)c1ccncc1)c1ccccc1O       Candida albicans        2.61
1  C/C(=N\NC(=O)c1ccncc1)c1ccc(O)cc1       Candida albicans        2.31
2                    NNC(=O)c1ccncc1       Candida albicans        2.34

Q: Output -logMIC of `COc1ccc(OC)c(/C(C)=N/NC(=O)c2ccncc2)c1`
Ans: 2.38

Q: Output -logMIC of `C/C(=N\NC(=O)c1ccncc1)c1ccc([N+](=O)[O-])cc1`
Ans: 2.36

Q: Output -logMIC of `COc1ccc(/C(C)=N/NC(=O)c2ccncc2)c(OC)c1`
Ans: 2.68

Q: Output -logMIC of `C/C(=N\NC(=O)c1ccncc1)c1ccc(O)cc1O`
Ans: 2.64

Q: Output -logMIC of `C/C(=N\NC(=O)c1ccncc1)c1cccc([N+](=O)[O-])c1`
Ans: 2.36

====

- Tested on: Coxsackievirus B4
- Experimental protocol: Antiviral activity against Human coxsackievirus B4 infected human HeLa cells assessed as inhibition of virus-induced cytopathicity by microscopy
- Type: functional, organism-based
- Measurement parameters: Enterovirus B
The entries below come with measured EC50 values attached.

Take a look at these entries with their results.
>>> df
                                   compound  target_or_test_system   test_value
0    COc1ccc(/C(C)=N/NC(=O)c2ccncc2)c(OC)c1      Coxsackievirus B4    > 4 µg/mL
1        C/C(=N\NC(=O)c1ccncc1)c1ccc(O)cc1O      Coxsackievirus B4  > 0.8 µg/mL
2  O=C(NN=C1CCCCCC1)c1ccncc1 [N'-CYCLOHEPTYLIDENEISONICOTINOHYDRAZIDE]      Coxsackievirus B4  > 100 µg/mL
3        C/C(=N\NC(=O)c1ccncc1)c1ccc(Br)cc1      Coxsackievirus B4    > 4 µg/mL
4           C/C(=N\NC(=O)c1ccncc1)c1ccccc1O      Coxsackievirus B4  > 0.2 µg/mL

Q: Output EC50 of `C/C(=N\NC(=O)c1ccncc1)c1cccc([N+](=O)[O-])c1`
Ans: > 4 µg/mL

Q: Output EC50 of `COc1ccc(OC)c(/C(C)=N/NC(=O)c2ccncc2)c1`
Ans: > 100 µg/mL

====

The entries below come with measured EC50 values attached.
- Test system: Human herpesvirus 5 strain AD169
- Experimental protocol: Antiviral activity against Human herpesvirus 5 strain AD169 Davis infected human HEL cells assessed as inhibition of virus-induced cytopathicity by microscopy
- Format: functional, organism-based
- Measurement parameters: Human betaherpesvirus 5, Davis

>>> df
                                   molecule             target_or_test_system  property   test_value
0           C/C(=N\NC(=O)c1ccncc1)c1ccccc1O  Human herpesvirus 5 strain AD169      EC50  > 0.8 µg/mL
1        C/C(=N\NC(=O)c1ccncc1)c1ccc(Cl)cc1  Human herpesvirus 5 strain AD169      EC50   > 20 µg/mL
2      C/C(=N\NC(=O)c1ccncc1)c1ccc(Cl)cc1Cl  Human herpesvirus 5 strain AD169      EC50   > 20 µg/mL
3    COc1ccc(OC)c(/C(C)=N/NC(=O)c2ccncc2)c1  Human herpesvirus 5 strain AD169      EC50  > 100 µg/mL
4    COc1ccc(/C(C)=N/NC(=O)c2ccncc2)c(OC)c1  Human herpesvirus 5 strain AD169      EC50   > 20 µg/mL
5        C/C(=N\NC(=O)c1ccncc1)c1ccc(O)cc1O  Human herpesvirus 5 strain AD169      EC50    > 4 µg/mL
6  C/C(=N\NC(=O)c1ccncc1)c1cccc([N+](=O)[O-])c1  Human herpesvirus 5 strain AD169      EC50   > 20 µg/mL
7         C/C(=N\NC(=O)c1ccncc1)c1ccc(O)cc1  Human herpesvirus 5 strain AD169      EC50   > 20 µg/mL
8  O=C(NN=C1CCCCCC1)c1ccncc1 [N'-CYCLOHEPTYLIDENEISONICOTINOHYDRAZIDE]  Human herpesvirus 5 strain AD169      EC50  > 100 µg/mL
9  C/C(=N\NC(=O)c1ccncc1)c1ccc([N+](=O)[O-])cc1  Human herpesvirus 5 strain AD169      EC50   > 20 µg/mL

From here, focus on the item given below.
Q: Specify EC50 for `C/C(=N\NC(=O)c1ccncc1)c1ccc(Br)cc1` , system Human herpesvirus 5 strain AD169.
Ans: > 20 µg/mL
